# System: P12-Ichikawa
# Measurement description: cell viability relative to DMSO control; higher = less cytotoxic
# Measurement context: RPMI 5 mM glucose + 10% dialyzed FBS; 48 h; 5.12 µM
Readout name: cell viability (%)

{"Smiles structure": "COCCOc1nc(-c2ccc(Cl)c(Cl)c2)n(-c2ccc(NC(=O)CCl)cc2)n1", "Readout name": "cell viability", "Measured number": 76}
{"Smiles structure": "CCC\\C1=C\\C(=O)NC(=S)N1", "Readout name": "cell viability", "Measured number": 83.9}
{"Smiles structure": "O=C(Oc1ccc([N+](=O)[O-])cc1)N1CCC(C(O)(c2ccc3c(c2)OCO3)c2ccc3c(c2)OCO3)CC1", "Readout name": "cell viability", "Measured number": 73.5}
{"Smiles structure": "N#Cc1ccnc(Nc2cc(C3CCN(C4COC4)CC3)cc(N3CCC(F)(F)C3)n2)c1", "Readout name": "cell viability", "Measured number": 111}
{"Smiles structure": "CN(C)CCOc1ccc(-c2nc(-c3ccncc3)c(-c3ccc4c(c3)CC/C4=N\\O)[nH]2)cc1", "Readout name": "cell viability", "Measured number": 96.8}

====

# maps each entry to its cell viability
# Tested on: NOMO1
# Measurement description: cell viability relative to DMSO control; higher = less cytotoxic
# Measurement context: RPMI 5 mM glucose + 10% FBS; 48 h; 46.1 µM

{"Compound": "CN(C)CCN(C)C(=O)c1ccc(NC(=O)Nc2ccc(-c3nc(N4CCOCC4)c4ccn(CC(F)(F)F)c4n3)cc2)cc1", "Measurement units": "%", "cell viability": 81.9}
{"Compound": "O=C(O)CCn1c2c(c3ccccc31)C[C@H](N[S+](=O)([O-])c1ccc(F)cc1)CC2", "Measurement units": "%", "cell viability": 90.5}
{"Compound": "CN1CCN2c3ncccc3Cc3ccccc3C2C1 (centres undefined)", "Measurement units": "%", "cell viability": 112}
{"Compound": "O=C(Cc1ccc(-c2ccc(OCCN3CCOCC3)cc2)cn1)NCc1ccccc1", "Measurement units": "%", "cell viability": 33.7}

====

# maps each entry to its cell viability
# System: P12-Ichikawa
# Measurement description: cell viability relative to DMSO control; higher = less cytotoxic
# Measurement context: RPMI 5 mM glucose + 10% FBS; 48 h; 15.4 µM

{"Molecule": "COc1ccc([C@@H]2CC(=O)c3c(O)cc(O[C@@H]4O[C@H](CO[C@@H]5O[C@@H](C)[C@H](O)[C@@H](O)[C@H]5O)[C@@H](O)[C@H](O)[C@H]4O)cc3O2)cc1O", "Measurement units": "%", "cell viability": 116}
{"Molecule": "NC(=O)c1cccc2cn(-c3ccc([C@@H]4CCCNC4)cc3)nc12", "Measurement units": "%", "cell viability": 75.5}
{"Molecule": "OC(=O)C(CC/1=C/C(=O)NC2=CC=CC=C12)NC(=O)C3=CC=C(Cl)C=C3 (configuration not stated)", "Measurement units": "%", "cell viability": 132}
{"Molecule": "Nc1cc(C(F)(F)F)c(-c2cc(N3CCOCC3)nc(N3CCOCC3)n2)cn1", "Measurement units": "%", "cell viability": 13.2}
{"Molecule": "COC[C@H](c1ccc(C(F)(F)F)cc1)N1CCN(C2(C)CCN(C(=O)c3c(C)ncnc3C)CC2)C[C@H]1C.O=C(O)/C=C\\C(=O)O", "Measurement units": "%", "cell viability": 99.8}
{"Molecule": "Cc1cc(Nc2nc(N[C@@H](C)c3ccc(F)cc3)c(C#N)cc2F)n[nH]1", "Measurement units": "%", "cell viability": 44.7}
{"Molecule": "Cn1c(=O)n(-c2ccc(C(C)(C)C#N)cc2)c2c3cc(-c4cnc5ccccc5c4)ccc3ncc21", "Measurement units": "%", "cell viability": 10.7}
{"Molecule": "C[C@]12CC[C@@H]3c4ccc(O)cc4CC[C@H]3[C@@H]1C[C@@H](O)[C@@H]2O", "Measurement units": "%", "cell viability": 108}
{"Molecule": "COC(=O)C1C2CC3c4[nH]c5cc(OC)ccc5c4CCN3CC2CC(OC(=O)c2cc(OC)c(OC)c(OC)c2)C1OC (configuration not stated)", "Measurement units": "%", "cell viability": 113}
{"Molecule": "CN1\\C(=C(\\O)C2=C(C=CC=C2)[S+]1([O-])=O)C(=O)NC3=CC=CC=N3", "Measurement units": "%", "cell viability": 42}
{"Molecule": "CN1CCN2c3ncccc3Cc3ccccc3C2C1 (configuration not stated)", "Measurement units": "%", "cell viability": 112}
{"Molecule": "COc1cc([C@H]2Oc3cc([C@H]4Oc5cc(O)cc(O)c5C(=O)[C@@H]4O)ccc3O[C@@H]2CO)ccc1O", "Measurement units": "%", "cell viability": 101}
{"Molecule": "COC1=C2C[C@@H](C)C[C@H](OC)[C@H](O)[C@@H](C)/C=C(\\C)[C@H](OC(N)=O)[C@@H](OC)/C=C/C=C(\\C)C(=O)NC(=CC1=O)C2=O", "Measurement units": "%", "cell viability": 51.5}
{"Molecule": "N[S+](=O)([O-])c1cccc2c1C(=O)c1cccc(O)c1C2=O", "Measurement units": "%", "cell viability": 102}
{"Molecule": "Cc1csc(NC(=O)c2sc3nc4c(c(C(F)(F)F)c3c2N)CCC4)n1", "Measurement units": "%", "cell viability": 79.2}
{"Molecule": "CN(C)CCN(C)C(=O)c1ccc(NC(=O)Nc2ccc(-c3nc(N4CCOCC4)c4ccn(CC(F)(F)F)c4n3)cc2)cc1", "Measurement units": "%", "cell viability": 65.4}
{"Molecule": "NCCCCNCCCN", "Measurement units": "%", "cell viability": 73.7}
{"Molecule": "CN[C@@H](C)C(=O)N[C@H]1CN(C(=O)CC(C)C)CC[C@H]2CC[C@@H](C(=O)NC(c3ccccc3)c3ccccc3)N2C1=O", "Measurement units": "%", "cell viability": 18.1}
{"Molecule": "Oc1cccc(-c2nc(N3CCOCC3)c3oc4ncccc4c3n2)c1", "Measurement units": "%", "cell viability": 94.6}
{"Molecule": "CC(C)c1cc(C(=O)N2Cc3ccc(CN4CCN(C)CC4)cc3C2)c(O)cc1O", "Measurement units": "%", "cell viability": 40.7}
{"Molecule": "CN(C)c1nc(Cc2ccc(NC(=O)c3ccc4ccccc4c3)cc2)nc(Cl)c1CC(=O)O", "Measurement units": "%", "cell viability": 69.8}
{"Molecule": "Cc1cc(C(=O)N2CCN(c3cccc(Cl)c3)CC2)n(-c2ccccc2)n1", "Measurement units": "%", "cell viability": 10.4}
{"Molecule": "CCN(C(=O)C/1=C(O)/C2=C(C=CC=C2Cl)N(C)C1=O)C3=CC=CC=C3", "Measurement units": "%", "cell viability": 1.95}
{"Molecule": "CCOC(=O)c1cncn1[C@H](C)c1ccccc1", "Measurement units": "%", "cell viability": 114}
{"Molecule": "CC(O)(C#Cc1ccc2c(c1)N(c1nc(N)ncc1Cl)CC2)c1nccs1 (configuration not stated)", "Measurement units": "%", "cell viability": 115}
{"Molecule": "CC[C@@]1(O)C(=O)OC\\C2=C1\\C=C\\3N(CC4=C3N=C5C=CC=CC5=C4)C2=O", "Measurement units": "%", "cell viability": 3.91}
{"Molecule": "O=C(Oc1ccc([N+](=O)[O-])cc1)N1CCC(C(O)(c2ccc3c(c2)OCO3)c2ccc3c(c2)OCO3)CC1", "Measurement units": "%", "cell viability": 93.7}
{"Molecule": "C=CC(=O)Nc1cccc(Nc2nc(NC3CCC(N(C)C)CC3)nc3c2ncn3C(C)C)c1 (configuration not stated)", "Measurement units": "%", "cell viability": 8.46}
{"Molecule": "CO/C1=C/C(C)=C\\[C@@H](C)[C@@H](O)[C@@H](C)C/C(C)=C\\C=C/[C@H](OC)[C@@H]([C@@H](C)[C@@H](O)[C@H](C)[C@@]2(O)C[C@@H](O)[C@H](C)[C@@H](C(C)C)O2)OC1=O", "Measurement units": "%", "cell viability": 25.4}
{"Molecule": "O=C(O)/C=C/c1ccc(O)c(O)c1", "Measurement units": "%", "cell viability": 93.4}
{"Molecule": "CC[C@]12\\C=C/CN3CC[C@]4([C@@H](N(C)C5=CC(=C(C=C45)[C@]6(C[C@H]7C[C@H](CN(C7)CC8=C6[NH]C9=C8C=CC=C9)C(C)(F)F)C(=O)OC)OC)[C@](O)([C@@H]1OC(C)=O)C(=O)OC)[C@H]23", "Measurement units": "%", "cell viability": 7.91}
{"Molecule": "CC1(C)CNc2cc(NC(=O)c3cccnc3NCc3ccncc3)ccc21", "Measurement units": "%", "cell viability": 105}
